# experimental_system: topoisomerase i (Homo sapiens, UniProt P11387)
# protocol: Persistence of topoisomerase I-mediated DNA cleavage after addition of 0.6 M NaCl
# Format: biochemical
# protocol_conditions: drug 10 μm; 20 minutes incubation, then sodium chloride (0.6 M), examined after about 10 minutes
Reported PERSISTENCE (%) of DNA cleavage on selected sites values for a set of molecules
Enter the number, and then the unit.

CC[C@@]1(O)C(=O)OCc2c1cc1n(c2=O)Cc2c-1nc1ccccc1c2C=NOCc1ccccc1 = 80%
CC[C@@]1(O)C(=O)OCc2c1cc1n(c2=O)Cc2cc3ccccc3nc2-1 = 16%
CC[C@@]1(O)C(=O)OCc2c1cc1n(c2=O)Cc2c-1nc1ccccc1c2C=NOC(C)(C)C = 72%
CC[C@@]1(O)C(=O)OCc2c1cc1n(c2=O)Cc2c-1nc1ccccc1c2C=NO [CPT 181, 7-hydroxyiminomethylcamptothecin, reference compound] = 28%

Input line: Give the reported value of PERSISTENCE (%) of DNA cleavage on selected sites for this record: CC[C@@]1(O)C(=O)OCc2c1cc1n(c2=O)Cc2cc3c(CN(C)C)c(O)ccc3nc2-1 [TPT, Topotecan, reference compound]
Output line: 16%

---

# experimental_system: topoisomerase i (Homo sapiens)
# Sequence (P11387 1-765): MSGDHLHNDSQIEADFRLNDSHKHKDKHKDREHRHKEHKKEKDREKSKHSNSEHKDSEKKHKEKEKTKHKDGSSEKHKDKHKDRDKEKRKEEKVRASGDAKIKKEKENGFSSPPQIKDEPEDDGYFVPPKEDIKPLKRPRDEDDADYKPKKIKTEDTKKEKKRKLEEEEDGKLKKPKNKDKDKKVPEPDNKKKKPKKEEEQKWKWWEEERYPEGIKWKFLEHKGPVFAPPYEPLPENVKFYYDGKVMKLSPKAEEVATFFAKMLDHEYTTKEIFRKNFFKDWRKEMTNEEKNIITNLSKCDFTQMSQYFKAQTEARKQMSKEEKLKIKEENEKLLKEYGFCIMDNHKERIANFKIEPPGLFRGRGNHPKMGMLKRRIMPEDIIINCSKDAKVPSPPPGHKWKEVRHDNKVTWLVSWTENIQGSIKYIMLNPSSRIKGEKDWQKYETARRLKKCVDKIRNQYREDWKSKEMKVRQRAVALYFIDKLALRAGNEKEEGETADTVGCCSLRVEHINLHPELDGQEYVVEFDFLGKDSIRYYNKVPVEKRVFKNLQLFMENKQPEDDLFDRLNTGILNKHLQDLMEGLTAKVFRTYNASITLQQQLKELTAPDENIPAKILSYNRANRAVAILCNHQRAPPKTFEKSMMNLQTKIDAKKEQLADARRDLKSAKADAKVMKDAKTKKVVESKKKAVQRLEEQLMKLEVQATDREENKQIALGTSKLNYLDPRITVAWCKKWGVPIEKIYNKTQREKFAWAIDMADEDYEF
# protocol: Persistence of topoisomerase I-mediated DNA cleavage after addition of 0.6 M NaCl
# Format: biochemical
# protocol_conditions: after sodium chloride (0.6 M), about 10 minutes
recorded_endpoint: Reversibility / persistence of the DNA cleavages (in words)

CC[C@@]1(O)C(=O)OCc2c1cc1n(c2=O)Cc2c-1nc1ccccc1c2C=NOCc1ccccc1 [CPT 172, 7-Benzyloxyiminomethylcamptothecin] = marked persistence
CC[C@@]1(O)C(=O)OCc2c1cc1n(c2=O)Cc2c-1nc1ccccc1c2C=NOC(C)(C)C [CPT 184, 7-T-Butoxyiminomethylcamptothecin] = marked persistence

---

# System: NCI H460 lung non-small cell carcinoma
# protocol: Antiproliferative activity test (cytotoxic activity) on NCI H460 cells
# Assay type: cell-based, human
# protocol_conditions: H-460
recorded_endpoint: IC50 (nM)
# value in nM; strip the unit string

Input line: Give the reported value of IC50 for this record: CC[C@@]1(O)C(=O)OCc2c1cc1n(c2=O)Cc2c-1nc1ccccc1c2C=Nc1ccccc1SSc1ccccc1N
Output line: 17

These measurements were taken from patent US7105492B2.
